assayTarget: JAK3 JH1 JH2 (human) (UniProt P52333)
Sequence (P52333 whole entry, looked up): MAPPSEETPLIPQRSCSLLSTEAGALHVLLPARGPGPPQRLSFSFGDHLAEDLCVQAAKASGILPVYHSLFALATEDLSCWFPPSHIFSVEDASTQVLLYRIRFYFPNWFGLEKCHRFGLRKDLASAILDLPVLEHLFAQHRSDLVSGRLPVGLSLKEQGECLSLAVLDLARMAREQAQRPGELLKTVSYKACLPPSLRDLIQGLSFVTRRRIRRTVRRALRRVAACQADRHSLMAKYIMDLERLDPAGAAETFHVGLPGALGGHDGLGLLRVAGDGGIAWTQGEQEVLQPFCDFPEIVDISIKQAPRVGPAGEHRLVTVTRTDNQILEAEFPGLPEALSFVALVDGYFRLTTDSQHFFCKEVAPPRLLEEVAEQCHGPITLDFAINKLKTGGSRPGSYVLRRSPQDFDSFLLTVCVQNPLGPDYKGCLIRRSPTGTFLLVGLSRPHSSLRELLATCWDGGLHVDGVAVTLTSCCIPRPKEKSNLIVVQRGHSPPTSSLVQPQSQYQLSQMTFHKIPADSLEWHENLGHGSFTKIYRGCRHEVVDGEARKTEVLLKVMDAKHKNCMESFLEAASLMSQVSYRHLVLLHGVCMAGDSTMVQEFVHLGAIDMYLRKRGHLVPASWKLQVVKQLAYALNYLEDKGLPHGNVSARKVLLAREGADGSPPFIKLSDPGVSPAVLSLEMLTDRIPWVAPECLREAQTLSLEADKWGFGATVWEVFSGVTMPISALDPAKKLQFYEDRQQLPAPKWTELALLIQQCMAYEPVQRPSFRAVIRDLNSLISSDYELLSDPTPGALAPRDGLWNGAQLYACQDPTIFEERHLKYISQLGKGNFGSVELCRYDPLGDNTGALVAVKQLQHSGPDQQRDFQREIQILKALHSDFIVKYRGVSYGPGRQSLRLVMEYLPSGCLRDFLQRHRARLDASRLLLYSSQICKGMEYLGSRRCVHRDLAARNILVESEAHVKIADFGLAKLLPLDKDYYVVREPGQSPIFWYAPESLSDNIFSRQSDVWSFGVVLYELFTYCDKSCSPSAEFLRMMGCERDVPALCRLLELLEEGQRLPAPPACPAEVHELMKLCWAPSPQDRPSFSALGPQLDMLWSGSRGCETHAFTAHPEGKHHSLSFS
protocolText: radiometric filter-binding kinase assay, Kinase HotSpot
conditionInfo: compound 0.5 µM; ATP 10 µM
residual activity by entry:
observedProperty: residual activity (%)

>  <compound>
Cc1[nH]c(/C=C2\C(=O)Nc3ccc(S(=O)(=O)N(C)c4cccc(Cl)c4)cc32)c(C)c1C(=O)N1CCN(C)CC1

>  <assayTarget>
JAK3 JH1 JH2 (human) (UniProt P52333)

>  <unitsSymbol>
%

>  <observed>
47

$$$$
>  <compound>
O=S(=O)(c1cccc2cnccc12)N1CCCNCC1

>  <assayTarget>
JAK3 JH1 JH2 (human) (UniProt P52333)

>  <unitsSymbol>
%

>  <observed>
120

$$$$
>  <compound>
c1ccc(-c2n[nH]cc2-c2ccnc3ccccc23)nc1

>  <assayTarget>
JAK3 JH1 JH2 (human) (UniProt P52333)

>  <unitsSymbol>
%

>  <observed>
92.7

$$$$
>  <compound>
CNc1cc2c(Nc3cccc(Br)c3)ncnc2cn1

>  <assayTarget>
JAK3 JH1 JH2 (human) (UniProt P52333)

>  <unitsSymbol>
%

>  <observed>
103

$$$$
>  <compound>
COc1ccc2c(c[n+](C)c3c4cc5c(cc4ccc23)OCO5)c1OC

>  <assayTarget>
JAK3 JH1 JH2 (human) (UniProt P52333)

>  <unitsSymbol>
%

>  <observed>
101

$$$$
>  <compound>
COc1ccc(COc2ccc(Cc3cnc(N)nc3N)cc2OC)cc1

>  <assayTarget>
JAK3 JH1 JH2 (human) (UniProt P52333)

>  <unitsSymbol>
%

>  <observed>
95.9

$$$$
>  <compound>
CCC(=O)Nc1ccc2ncnc(Nc3cccc(Br)c3)c2c1

>  <assayTarget>
JAK3 JH1 JH2 (human) (UniProt P52333)

>  <unitsSymbol>
%

>  <observed>
98.3

$$$$
>  <compound>
CC#CC(=O)Nc1cc2c(Nc3ccc(F)c(Cl)c3)ncnc2cn1

>  <assayTarget>
JAK3 JH1 JH2 (human) (UniProt P52333)

>  <unitsSymbol>
%

>  <observed>
-0.181

$$$$
>  <compound>
CCOC(=O)c1c(C)[nH]c(/C=C2\C(=O)Nc3ccccc32)c1C

>  <assayTarget>
JAK3 JH1 JH2 (human) (UniProt P52333)

>  <unitsSymbol>
%

>  <observed>
69.1

$$$$
>  <compound>
CNC(=O)c1cc(Oc2ccc(NC(=O)Nc3ccc(Cl)c(C(F)(F)F)c3)cc2)ccn1

>  <assayTarget>
JAK3 JH1 JH2 (human) (UniProt P52333)

>  <unitsSymbol>
%

>  <observed>
99.4

$$$$
>  <compound>
Nc1cccc(-c2cc3c(Oc4cccc(O)c4)ncnc3[nH]2)c1

>  <assayTarget>
JAK3 JH1 JH2 (human) (UniProt P52333)

>  <unitsSymbol>
%

>  <observed>
123

$$$$
>  <compound>
CC(C)N(CCC(=O)c1ccc2ccccc2c1)Cc1ccccc1

>  <assayTarget>
JAK3 JH1 JH2 (human) (UniProt P52333)

>  <unitsSymbol>
%

>  <observed>
80.9

$$$$
>  <compound>
Nc1ccc2ncnc(NCCc3ccc(Oc4ccccc4)cc3)c2c1

>  <assayTarget>
JAK3 JH1 JH2 (human) (UniProt P52333)

>  <unitsSymbol>
%

>  <observed>
96.9

$$$$
>  <compound>
N#C/C(=C(/N)Sc1ccc(N)cc1)c1ccccc1C(F)(F)F

>  <assayTarget>
JAK3 JH1 JH2 (human) (UniProt P52333)

>  <unitsSymbol>
%

>  <observed>
101

$$$$
>  <compound>
O=C(Nc1cccc(Nc2nccc(Nc3cccc(C(F)(F)F)c3)n2)c1)C1CC1

>  <assayTarget>
JAK3 JH1 JH2 (human) (UniProt P52333)

>  <unitsSymbol>
%

>  <observed>
109

$$$$
>  <compound>
N#CC(C#N)=C(N)/C(C#N)=C/c1ccc(O)cc1

>  <assayTarget>
JAK3 JH1 JH2 (human) (UniProt P52333)

>  <unitsSymbol>
%

>  <observed>
102

$$$$
>  <compound>
CO[C@H]1CC2CC[C@@H](C)[C@@](O)(O2)C(=O)C(=O)N2CCCC[C@H]2C(=O)OC([C@H](C)C[C@@H]2CC[C@@H](O)[C@H](OC)C2)CC(=O)[C@H](C)/C=C(\C)[C@@H](O)[C@@H](OC)C(=O)[C@H](C)C[C@H](C)/C=C/C=C/C=C/1C (stereo partly specified)

>  <assayTarget>
JAK3 JH1 JH2 (human) (UniProt P52333)

>  <unitsSymbol>
%

>  <observed>
92.4

$$$$
>  <compound>
Nc1ncnc2c1c(-c1ccc(Oc3ccccc3)cc1)cn2C1CCCC1

>  <assayTarget>
JAK3 JH1 JH2 (human) (UniProt P52333)

>  <unitsSymbol>
%

>  <observed>
105

$$$$
>  <compound>
O=C1NC(=O)/C(=C/c2ccc3c(c2)OC(F)(F)O3)S1

>  <assayTarget>
JAK3 JH1 JH2 (human) (UniProt P52333)

>  <unitsSymbol>
%

>  <observed>
98.6

$$$$
>  <compound>
O=C1NC(=O)c2c1c1c3ccccc3n3c1c1c2c2ccccc2n1C1CCC3O1

>  <assayTarget>
JAK3 JH1 JH2 (human) (UniProt P52333)

>  <unitsSymbol>
%

>  <observed>
1.87

$$$$
>  <compound>
Nc1ncnc2[nH]nc(Nc3ccc(F)cc3)c12

>  <assayTarget>
JAK3 JH1 JH2 (human) (UniProt P52333)

>  <unitsSymbol>
%

>  <observed>
102

$$$$
